System: Ceramide transfer protein (Homo sapiens) (UniProt Q9Y5P4)
Sequence (whole entry): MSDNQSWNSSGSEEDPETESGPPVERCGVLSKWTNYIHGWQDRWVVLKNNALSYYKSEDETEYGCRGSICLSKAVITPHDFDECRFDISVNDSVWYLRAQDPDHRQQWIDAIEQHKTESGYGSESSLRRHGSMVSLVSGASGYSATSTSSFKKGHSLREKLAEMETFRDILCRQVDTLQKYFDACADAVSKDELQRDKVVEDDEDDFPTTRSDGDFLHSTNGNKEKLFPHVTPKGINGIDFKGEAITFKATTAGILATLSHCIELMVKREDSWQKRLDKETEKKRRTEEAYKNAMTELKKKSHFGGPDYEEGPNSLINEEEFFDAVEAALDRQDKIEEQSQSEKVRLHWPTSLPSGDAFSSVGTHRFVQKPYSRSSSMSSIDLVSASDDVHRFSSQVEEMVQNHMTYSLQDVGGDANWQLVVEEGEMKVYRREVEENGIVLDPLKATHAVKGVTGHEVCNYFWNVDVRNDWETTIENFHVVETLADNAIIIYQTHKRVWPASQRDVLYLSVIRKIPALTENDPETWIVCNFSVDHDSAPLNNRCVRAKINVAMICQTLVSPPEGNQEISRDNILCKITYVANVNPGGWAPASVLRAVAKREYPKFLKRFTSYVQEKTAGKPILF
Assay Notes: Inhibition of fluorescent ceramide probe binding to recombinant His-tagged START domain of CERT (unknown origin) assessed as bound fluorescent ceramide probe level at 200 pmol preincubated for 30 mins followed by ceramide probe addition after 30 mins by FLINT assay (reference value: 28.4 +/- 2.75%)
Parameters: scale not given: the % may be the effect or the level left
The entries below are paired with their reported Activity.
Answer with a number only, understood to be in %.

Some entries whose results are on file:
- Structure: "CCCCCCCCCCCCO[C@H]1CNC[C@@H](O)[C@@H]1O"
  Activity (%): 41
- Structure: "CCCCCCCCCCCCN1C[C@@H](O)[C@H](O)[C@@H](O)C1"
  Activity (%): 48
- Structure: "CCCCCCCCCCCCO[C@@H]1CN(CCCCCCCCCCCC)C[C@@H](O)[C@@H]1O"
  Activity (%): 54.3
- Structure: "CCCCCCCCCCCCO[C@H]1CN(CCCCCCCCCCCC)C[C@@H](O)[C@@H]1O"
  Activity (%): 30.1

Now take the following compound into account.
Task: So what's the measured Activity for this one? `CCCCCCCCCCCC(=O)N[C@@H](CO)C[C@H](O)c1ccccc1`
Result: 25.5

Just for reference, ChEMBL document CHEMBL3994663 is where these values come from.
